# target system: recombinant human OX40 fused to a His-tag (Acro Biosystems, cat. no. OX0-H5224) (human) (UniProt P43489)
# Sequence (P43489 29-214 limits assumed): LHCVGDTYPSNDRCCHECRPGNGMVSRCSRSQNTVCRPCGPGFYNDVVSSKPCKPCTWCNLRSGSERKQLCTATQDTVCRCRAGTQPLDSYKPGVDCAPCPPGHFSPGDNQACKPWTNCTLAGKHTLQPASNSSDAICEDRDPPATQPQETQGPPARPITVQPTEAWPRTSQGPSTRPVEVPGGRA
# assay details: BLI cross-block; first Ab (competitor): IgG1-CD134-MEDI0562
Each entry below carries its recorded association response.
// return numeric value only (unit: nm, not printed)

>  <binder>
IgG1-CD134-RG7888 (antibody, INN chains, looked up, V domains shown, IgG1) VH: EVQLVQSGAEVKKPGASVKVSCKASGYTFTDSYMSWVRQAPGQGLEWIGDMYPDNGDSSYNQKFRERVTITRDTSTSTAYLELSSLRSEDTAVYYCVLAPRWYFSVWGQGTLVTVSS VL: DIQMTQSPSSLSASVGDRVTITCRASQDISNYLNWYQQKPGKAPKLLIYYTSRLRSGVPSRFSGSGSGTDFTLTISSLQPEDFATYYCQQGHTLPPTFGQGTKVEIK

>  <u>
nm

>  <quantitative result>
0.02

$$$$

Q) Quick one: association response of IgG1-CD134-ABBV368 (antibody, INN chains, looked up, V domains shown, IgG1) VH: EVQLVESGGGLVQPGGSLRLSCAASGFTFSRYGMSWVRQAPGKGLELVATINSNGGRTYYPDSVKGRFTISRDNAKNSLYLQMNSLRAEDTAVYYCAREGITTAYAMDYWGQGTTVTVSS VL: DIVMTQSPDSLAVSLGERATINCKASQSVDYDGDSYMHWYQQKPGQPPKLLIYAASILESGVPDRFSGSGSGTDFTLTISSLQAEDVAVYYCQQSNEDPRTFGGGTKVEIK ?
A) -0.01

Q) Quick one: association response of IgG1-CD134-GBR830 (antibody, INN chains, looked up, V domains shown, IgG1) VH: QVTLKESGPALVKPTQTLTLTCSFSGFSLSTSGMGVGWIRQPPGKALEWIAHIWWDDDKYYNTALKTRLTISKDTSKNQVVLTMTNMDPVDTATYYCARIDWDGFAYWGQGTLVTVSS VL: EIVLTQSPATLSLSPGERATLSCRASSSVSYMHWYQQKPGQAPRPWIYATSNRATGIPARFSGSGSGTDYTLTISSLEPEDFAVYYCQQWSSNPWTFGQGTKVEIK ?
A) 0.33

Q) Quick one: association response of IgG1-CD134-Hu106 (antibody, from another filing, V domains shown) VH: QVQLVQSGSELKKPGASVKVSCKASGYTFTDYSMHWVRQAPGQGLKWMGWINTETGEPTYADDFKGRFVFSLDTSVSTAYLQISSLKAEDTAVYYCANPYYDYVSYYAMDYWGQGTTVTVSS VL: DIQMTQSPSSLSASVGDRVTITCKASQDVSTAVAWYQQKPGKAPKLLIYSASYLYTGVPSRFSGSGSGTDFTFTISSLQPEDIATYYCQQHYSTPRTFGQGTKLEIK ?
A) 0.31

Provenance of the data: patent US20240400703A1
